Assay: Inhibitor binding assay of SEQ ID NO 3 variants, Inhibitor 1, in Model B detergent
Type: biochemical
Settings: in Model B relative to SEQ ID NO 3 comprising S173P + S175P + F180Y; relative Ki, IF>1.0 = lower Ki
quantity measured: inhibitor 1 binding constant improvement factors (IF)
Numbers only.

Qu. Let me know recorded inhibitor 1 binding constant improvement factors (IF) for Q70A + S173P + S175P + F180Y: protease variant of SEQ ID NO 3 (protein, listed as Bacillus sp.) AVPSTQTPWGIKSIYNDQSITKTTGGSGIKVAVLDTGVYTSHLDLAGSAEQCKDFTQSNPLVDGSCTDRAGHGTHVAGTVLAHGGSNGQGVYGVAPQAKLWAYKVLGDNGSGYSDDIAAAIRHVADEASRTGSKVVINMSLGSSAKDSLIASAVDYAYGKGVLIVAAAGNSGPGPNTIGYPGGLVNAVAVAALENVQQNGTYRVADFSSRGNPATAGDYIIQERDIEVSAPGASVESTWYTGGYNTISGTSMATPHVAGLAAKIWSANTSLSHSQLRTELQNRAKVYDIKGGIGAGTGDDYASGFGYPRVK , thanks.
Ans. 4.13
